Target: Dihydroorotate dehydrogenase (quinone), mitochondrial (Plasmodium falciparum (isolate 3D7)) (UniProt Q08210)
Sequence (Q08210 whole entry, looked up): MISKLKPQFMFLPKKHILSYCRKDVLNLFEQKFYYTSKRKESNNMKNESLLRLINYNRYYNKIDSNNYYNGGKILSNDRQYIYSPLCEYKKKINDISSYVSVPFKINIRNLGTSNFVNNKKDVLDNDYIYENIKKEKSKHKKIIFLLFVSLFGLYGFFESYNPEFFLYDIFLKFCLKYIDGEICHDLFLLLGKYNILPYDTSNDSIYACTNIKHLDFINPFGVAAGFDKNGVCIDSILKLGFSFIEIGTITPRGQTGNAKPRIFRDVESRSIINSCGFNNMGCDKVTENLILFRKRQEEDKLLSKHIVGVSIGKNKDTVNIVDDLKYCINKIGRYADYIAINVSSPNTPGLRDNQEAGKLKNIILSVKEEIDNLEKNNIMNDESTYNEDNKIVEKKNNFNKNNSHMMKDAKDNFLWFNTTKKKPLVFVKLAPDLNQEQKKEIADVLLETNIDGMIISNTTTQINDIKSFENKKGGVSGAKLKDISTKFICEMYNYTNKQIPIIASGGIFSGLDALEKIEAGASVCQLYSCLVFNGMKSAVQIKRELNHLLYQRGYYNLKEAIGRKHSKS
Assay: inhibition of P. falciparum DHODH – biochemical, C-terminal His tag, absorbance 600 nm, primary screen (AID 1175);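 further: recombinant parasite enzyme with a five histidine tag at its C terminus; test concentration not given here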
Conditions: PfDHODH enzyme, DCIP absorbance 600 nm; higher = more signal, called active from +8 up or from −8 down
value-type: composite z-score
Answer as a number with no unit attached.

The reported composite z-score of the compound "CCCC[C@H]1C[C@@H]1[C@@H]1N(P(=O)(c2ccccc2)c2ccccc2)C[C@@](O)(c2ccccc2)CC12CC2" was -0.244

The reported composite z-score of the compound "COc1ccc(CCNC(=O)[C@@]2(C)c3ccccc3C(=O)N(c3ccc(C)cn3)[C@H]2c2ccc(CO)cc2)cc1" was -0.907

The reported composite z-score of the compound "C=CCOC(=O)[C@H]1[C@@H]2C(=O)O[C@@H](c3ccccc3)[C@@H](c3ccccc3)N2[C@@H](c2ccc(OCCOC(=O)[C@@H]3C[C@@H]4C(=O)N5CCC[C@H]5C(=O)N4[C@@H]3c3cccc(OCCO)c3)cc2)[C@]12C(=O)Nc1ccc(I)cc12" was -0.49

----------
Biological target: Concanavalin-A (Canavalia ensiformis) (UniProt P02866)
Sequence (P02866 whole entry, looked up): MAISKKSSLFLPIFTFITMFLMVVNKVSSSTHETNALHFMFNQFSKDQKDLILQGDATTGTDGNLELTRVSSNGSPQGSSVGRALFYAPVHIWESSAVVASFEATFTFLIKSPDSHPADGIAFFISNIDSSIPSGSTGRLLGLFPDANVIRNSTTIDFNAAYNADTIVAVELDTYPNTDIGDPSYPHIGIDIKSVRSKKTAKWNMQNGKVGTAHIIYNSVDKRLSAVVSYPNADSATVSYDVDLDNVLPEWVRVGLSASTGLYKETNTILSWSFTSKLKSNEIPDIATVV
Test: compounds binding concanavalin A lectin – biochemical, small-molecule microarray, Alexa647 label, 635 nm, artefact control for SMM control protein annotation, primary screen (AID 1127);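 further: z combines 667 nm emission intensity with signal-to-noise across three replicate slides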
Details: ConA-A647 binding fluorescence, higher = more signal
Entries and their composite z-score
Answer as a number with no unit attached.

Look over these answered cases.
[
  {
    "compound": "CCC(CC)C(O)C1C=CC2C(=O)N(c3ccccc3)C(=O)C2N1Nc1ccccc1 (stereo not given)",
    "composite z-score": 1.16
  },
  {
    "compound": "COCCOC(=O)N1C(=O)[C@@]2(c3cc(C#CCCO)ccc31)[C@H](c1ccc(OCCO)cc1)N1[C@H](c3ccccc3)[C@H](c3ccccc3)OC(=O)[C@H]1[C@@H]2C(N)=O",
    "composite z-score": 1.17
  },
  {
    "compound": "COc1ccc([C@H]2OC[C@@H]3CCC(=O)N32)cc1",
    "composite z-score": 0.3
  },
  {
    "compound": "C=C(CCCC)/C(=C/C[C@H](OC(C)=O)c1ccccc1OCCO)c1cnc2ccccc2c1",
    "composite z-score": 0.706
  },
  {
    "compound": "CC(=O)NCCCC[C@@H]1NC(=O)[C@H]2C[C@@H](C(=O)O)[C@@H](c3ccc(O)cc3)N2C1=O",
    "composite z-score": 1.1
  },
  {
    "compound": "O=C(O)C1N=C(c2ccc(OCCCO)cc2)N(c2ccccc2)O1 (stereo not given)",
    "composite z-score": 0.658
  },
  {
    "compound": "O=C1C2C=CC(C(O)C=Cc3ccc([N+](=O)[O-])cc3)N(Nc3ccccc3F)C2C(=O)N1c1ccccc1 (stereo not given)",
    "composite z-score": 1.15
  },
  {
    "compound": "[N-]=[N+]=NCc1ccccc1[C@H]1OC(c2ccc(OCCCO)cc2)=N[C@@]1(Cc1ccccc1)C(=O)N1CCCCC1",
    "composite z-score": 1.08
  }
]

The reported composite z-score of the compound COc1ccc(C(O)C2C=CC3C(=O)N(C)C(=O)C3N2N(c2ccccc2)c2ccccc2)c2ccccc12 (stereo not given) was 0.369

The reported composite z-score of the compound CCCC1(C(=O)OC)C=C2C(=C(c3ccccc3)C(=O)C2C)CN1 (stereo not given) was -1.13

----------
Experiment: Pseudomonas biofilm growth suppression – PAO1 strain, BacTiter-Glo luminescence, LB-PBS, primary screen (AID 1144)
Settings: P. aeruginosa PAO1 biofilm, 12 h, higher = more signal
Note to self: class labels come from recorded z-score, ranges listed here: lower level = under -0.8, middle level = from -0.8 up to -0.1, upper level = -0.1 and over

Previously resolved entries follow.
[
  {
    "compound": "COCC(=C=CC[C@H](O)c1ccccc1OCCO)CCO",
    "category-label": "middle level"
  },
  {
    "compound": "C[N+](C)(C)CCCC[C@@H]1NC(=O)[C@@H]2C[C@H](C(=O)NCCCCCCNC(=O)CS)[C@H](c3ccc(O)cc3)N2C1=O",
    "category-label": "middle level"
  },
  {
    "compound": "CCOC(=O)C[C@H]1[C@H](OC(=O)c2ccc(-c3ccccc3)cc2)[C@@H](NC(=O)c2ccccc2)c2cc(OCCCO)ccc2N1C(=O)Cc1ccc(OC)cc1",
    "category-label": "lower level"
  },
  {
    "compound": "Cc1ccc(S[C@]2(C(=O)O)CC(=O)N(C(C)C)[C@@H]2c2ccc(CO)cc2)cc1",
    "category-label": "lower level"
  },
  {
    "compound": "CC(C)[Si](C#CCCCC#N)(O[C@H](c1ccccc1)c1cn(Cc2cccc(Cl)c2)nn1)C(C)C",
    "category-label": "middle level"
  },
  {
    "compound": "CCCCN1CC=CC23O[C@@H]4C=CCOC(=O)[C@@H]4[C@H]2C(=O)N(CCCCCCO)[C@@H]3C1=O (some centres undefined)",
    "category-label": "upper level"
  }
]

[in] Which class does "C[N+](C)(C)CCCC[C@@H]1NC(=O)[C@@H]2C[C@H](C(=O)NCCCCCN)[C@H](c3ccc(O)cc3)N2C1=O" fall in?
[out] middle level

[in] Which class does "CCOC(=O)C[C@H]1[C@H](OC(=O)c2ccc(-c3ccccc3)cc2)[C@@H](NC(=O)c2ccccc2)c2cc(OCCCO)ccc2N1C(=O)c1ccc2ccccc2n1" fall in?
[out] upper level

[in] Which class does "C=CC[C@@]1(C(=O)N2CCCCC2)N=C(c2ccc(OCCCO)cc2)O[C@@H]1c1ccccc1CN=[N+]=[N-]" fall in?
[out] middle level

----------
Assay: forskolin-driven CRE-LacZ activity in PC12 – cell-based, CRE-LacZ reporter, forskolin-stimulated, primary screen (AID 1146);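 further: PC12 cells with 6xCRE LacZ reporter stimulated by forskolin 10 µM; beta-galactosidase reporter signal reflecting CREB driven transcription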
Conditions: luminescence, 4.5 h, higher = more signal, called active from +8 up or from −8 down
Lab note: compare z-score against 2. Equal or greater, write T. Smaller, write F.

Previously resolved entries follow.
[
  {
    "smiles-notation": "CCOC(=O)C1=CC[C@@H](c2ccc(C(F)(F)F)cc2)N(S(=O)(=O)c2ccc(C)cc2)[C@H]1c1ccccc1",
    "category-label": "F"
  },
  {
    "smiles-notation": "COCCOC(=O)N1C(=O)[C@@]2(c3cc(C#CC4=CCCCC4)ccc31)[C@H](c1ccc(OCCO)cc1)N1[C@H](c3ccccc3)[C@H](c3ccccc3)OC(=O)[C@H]1[C@@H]2C(=O)N1CCc2cc(OC)c(OC)cc2C1",
    "category-label": "F"
  },
  {
    "smiles-notation": "COc1cc2c(cc1OC)CN(C(=O)[C@H]1[C@@H]3C(=O)O[C@@H](c4ccccc4)[C@@H](c4ccccc4)N3[C@@H](c3ccccc3OCCO)[C@]13C(=O)Nc1ccc(C#CCCO)cc13)CC2",
    "category-label": "F"
  },
  {
    "smiles-notation": "CCCC[C@H]1C[C@@H]1[C@@H]1N(P(=O)(c2ccccc2)c2ccccc2)C[C@@](O)(c2ccccc2)CC12CC2",
    "category-label": "F"
  },
  {
    "smiles-notation": "COCC(=C=CC[C@@H](O)c1ccc(OCCO)cc1)C[C@@H](O)c1ccccn1",
    "category-label": "T"
  }
]

Please examine the following record next.
[in] Please indicate if the recorded z-score for "CN(C)C(=O)[C@]1(Cc2ccccc2)N=C(c2ccc(OCCCO)cc2)O[C@@H]1c1ccccc1N=[N+]=[N-]" meets or exceeds 2.
[out] F

----------
Entries and their z-score
Assay: compound effects on multiple myeloma cell viability – MM1S, calcein-AM fluorescence, 48 h, basal, profiling panel (AID 1165);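 further: viability of MM1S multiple myeloma cells under basal unstimulated conditions; test concentration not given here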
Settings: higher = more signal
Answer as a number with no unit attached.

[
  {
    "molecule": "CC(=CC1CCCCC1)[C@@H](NC(=O)c1cccnc1)c1ccc(-c2ccccc2)cc1",
    "value-type": "z-score",
    "meas-value": -2.15
  },
  {
    "molecule": "COCCOC(=O)N1C(=O)[C@@]2(c3ccccc31)[C@H](C(N)=O)[C@H]1C(=O)O[C@H](c3ccccc3)[C@H](c3ccccc3)N1[C@@H]2c1ccc(O)cc1",
    "value-type": "z-score",
    "meas-value": 0.84
  },
  {
    "molecule": "COc1ccc(CCNC(=O)[C@@]2(C)c3ccccc3C(=O)N(c3ccc(C)cn3)[C@H]2c2ccc(CO)cc2)cc1",
    "value-type": "z-score",
    "meas-value": -0.64
  },
  {
    "molecule": "COc1ccc([C@H]2OC[C@@H]3CCC(=O)N32)cc1",
    "value-type": "z-score",
    "meas-value": -0.804
  },
  {
    "molecule": "O=C(O)C1N=C(c2ccc(OCCCO)cc2)N(c2ccccc2)O1 (stereo unspecified)",
    "value-type": "z-score",
    "meas-value": 0.569
  },
  {
    "molecule": "CN(C)CCCCCCNC(=O)[C@@H]1C[C@@H]2C(=O)N3CCC[C@H]3C(=O)N2[C@@H]1c1ccc(O)cc1",
    "value-type": "z-score",
    "meas-value": 0.581
  },
  {
    "molecule": "COC(=O)[C@@]1(Cc2ccccc2)[C@H]2c3cc(C(=O)N(C)C)n(Cc4ccc(OC)c(OC)c4)c3C[C@H]2CN1C(=O)c1ccccc1",
    "value-type": "z-score",
    "meas-value": -1.42
  },
  {
    "molecule": "CO[C@H]1O[C@H](CO)[C@@H](OC(=O)Nc2cccc(F)c2)[C@H](OC(=O)Nc2ccccc2)[C@H]1OC(=O)Nc1ccccc1",
    "value-type": "z-score",
    "meas-value": -1.53
  },
  {
    "molecule": "C=CC[C@]1(C(=O)NCc2ccccc2)N=C(c2ccc(OCCCO)cc2)O[C@H]1c1ccccc1CN=[N+]=[N-]",
    "value-type": "z-score",
    "meas-value": -1.28
  },
  {
    "molecule": "CCN(CC)c1ccc(N2CC=CC34O[C@@H]5C=CCOC(=O)[C@@H]5[C@H]3C(=O)N(CCCCCCO)[C@@H]4C2=O)cc1 (stereo partly specified)",
    "value-type": "z-score",
    "meas-value": 1.4
  }
]

Proceed to the following item.
The reported z-score of the molecule "CC[C@@H]1C=C(C(=O)O)[C@H](c2cccc3ccccc23)N1S(=O)(=O)c1ccc(C)cc1" was -0.585

Source of measurements: PubChem BioAssay
